Test system: NCI-H226 lung
Experiment: NCI tumour cell line growth inhibition, 48 h
assay-readout: TGI

Some compounds with known TGI results, for comparison:
compound	TGI
CCN1C(=O)N(CC)C2C1NN=c1s/c(=C\c3ccc(C(F)(F)F)cc3)c(=O)n12 (stereo unspecified)	> 24.8 µM
Fc1ccc(-c2ncn(CCCN3CCOCC3)c2-c2ccncc2)cc1	> 25 µM
CO/C=C(\Br)c1ccc2c(c1)OCO2	> 100 µM

TGI of Cc1nc(-n2nc(-c3ccccc3)cc2-c2ccccc2)sc1C(=O)/C=C/c1ccc([N+](=O)[O-])cc1 , assay on NCI-H226 lung, is > 100 µM

TGI of CC(ON1[C@](C)(c2ccccc2)CC[C@@]1(C)c1ccccc1)c1ccccc1 (stereo partly specified) , assay on NCI-H226 lung, is > 100 µM

TGI of COn1oc(=O)c2ccccc21 , assay on NCI-H226 lung, is > 100 µM

====

Test system: SR leukemia
Select the correct class. Options are active, inactive and nothing else.

compound	category-label
COc1ccc(-c2cc(-c3ccc(OC)cc3)nc(NCCCNc3ccnc4cc(Cl)ccc34)n2)cc1	inactive
CCCCC(OC(=O)c1ccc(N)cc1)C(=O)Nc1nc(CC(=O)OCC)cs1 (centres undefined)	inactive
CCc1cccc(NC(=O)Nc2ccc(Oc3ccc4nc(NC(=O)OC)[nH]c4c3)cc2)c1	active
CC[C@@]1(O)C[C@H](OC2CC(N(C)C)C(OC3CC(O)C(OC4CCC(=O)C(C)O4)C(C)O3)C(C)O2)c2c(cc3c(c2O)C(=O)c2c(O)cccc2C3=O)C1C(=O)OC (some centres undefined)	active
Fc1ccc(-c2ncn(CCCN3CCOCC3)c2-c2ccncc2)cc1	inactive
COc1cc2c(/C=C3/C(=O)Nc4ccc(O)cc43)c(Cl)n(Cc3cc(OC)c(OC)c(OC)c3)c2cc1C	active
C/C(CC(C)(C)N1CC1)=N\NC(=O)Nc1cccc2ccccc12	inactive
COc1ccc(C2CC(c3ccc(OC)cc3O)=NN2c2ccc(S(N)(=O)=O)cc2)cc1 (centres undefined)	inactive

Hi, do you know how O=c1oc2ccc(Cl)cc2c(=O)n1-c1ccc(F)cc1F came out in this test?
inactive

====

Test system: RXF 393 renal
Assay: NCI tumour cell line growth inhibition, 48 h
assay-readout: TGI

Some molecules with known TGI results, for comparison:
c1cc(C2=NCCO2)c2ccsc2c1 > 100 µM
Cc1cc(C#N)c(Nc2ccc(F)cc2[N+](=O)[O-])s1 > 100 µM

Next molecule, please.
TGI of [N-]=[N+]=Nc1c(-c2ccccc2)c(=O)n(-c2ccccc2)c2ccccc12 , assay on RXF 393 renal, is > 100 µM

====

System: SNB-19 CNS
Assay: NCI tumour cell line growth inhibition, 48 h
Attribute: TGI

Some molecules with known TGI results, for comparison:
molecule	assay-readout	measured-result
CC(=O)OCC1=CC2OC(=O)C3=COC(OC4OC(CO)C(O)C(O)C4O)C1C32 (stereo not given)	TGI	> 100 µM
CNC(=O)N1CN(c2ccccc2)C2(CCN(Cc3ccccc3)CC2)C1=O	TGI	> 100 µM
COC(=O)C1=C(C(=O)ON)[C@@H]2C=C[C@@]1([C@@H](Cc1ccccc1)Nc1ccccc1)O2	TGI	29.5 µM
CCCCC(=O)c1c(O)ccc2c(C)cc(=O)oc12	TGI	> 100 µM
COC(=O)c1sc2c(=O)c(C(=O)OC)c(C(=O)OC)sc2c(=O)c1C(=O)OC	TGI	> 100 µM
CCCCCCCC(=O)OC[C@H](C[As](=O)(O)O)OC(=O)CCCCCCC	TGI	27.3 µM

In plain terms, CCOP(=O)(Nc1ccc(-c2ccc(N)cc2)cc1)OCC has a documented TGI of > 100 µM

In plain terms, COc1ccc(C[C@]23CCC(=O)N2CCc2cc(OC)c(O)cc23)cc1O has a documented TGI of > 100 µM

In plain terms, Cc1ccc(-c2nc(/C=N/Nc3cc(C)nc4ccc(Br)cc34)c(C)o2)cc1 has a documented TGI of 3.48 µM

In plain terms, Cc1cc(C#N)c(Nc2ccc(F)cc2[N+](=O)[O-])s1 has a documented TGI of > 100 µM

Just for reference, PubChem BioAssay (NCI) is where these values come from.
